# Condition Label: in isopropanol, 303.15 K
Measured Quantity: solubility (mole fraction)
One number for each entry.

q: # solubility (mole fraction) lookup, item CN1CCN(C2=Nc3cc(Cl)ccc3Nc3ccccc32)CC1
a: 0.00544

---

# Condition Label: in isobutanol, 318.15 K
Measured Quantity: solubility (mole fraction)
One number for each entry.

q: # solubility (mole fraction) lookup, item CN1CCN(C2=Nc3cc(Cl)ccc3Nc3ccccc32)CC1
a: 0.0142

---

# Condition Label: in n-propanol, 293.15 K
Measured Quantity: solubility (mole fraction)
Answers are plain numbers.

q: # solubility (mole fraction) lookup, item CN1CCN(C2=Nc3cc(Cl)ccc3Nc3ccccc32)CC1
a: 0.0105

---

# Condition Label: in THF, 278.15 K
Measured Quantity: solubility (mole fraction)

q: # solubility (mole fraction) lookup, item CN1CCN(C2=Nc3cc(Cl)ccc3Nc3ccccc32)CC1
a: 0.0624

---

# Condition Label: in DMF, 298.15 K
Measured Quantity: solubility (mole fraction)
One number for each entry.

q: # solubility (mole fraction) lookup, item CN1CCN(C2=Nc3cc(Cl)ccc3Nc3ccccc32)CC1
a: 0.117

---

# Condition Label: in methanol, 318.15 K
Measured Quantity: solubility (mole fraction)
One number for each entry.

q: # solubility (mole fraction) lookup, item CN1CCN(C2=Nc3cc(Cl)ccc3Nc3ccccc32)CC1
a: 0.013

---

# Condition Label: in acetonitrile, 288.15 K
Measured Quantity: solubility (mole fraction)
Answers are plain numbers.

q: # solubility (mole fraction) lookup, item CN1CCN(C2=Nc3cc(Cl)ccc3Nc3ccccc32)CC1
a: 0.0026

---

# Condition Label: in ethanol, 303.15 K
Measured Quantity: solubility (mole fraction)
Answers are plain numbers.

q: # solubility (mole fraction) lookup, item CN1CCN(C2=Nc3cc(Cl)ccc3Nc3ccccc32)CC1
a: 0.0089

---

# Condition Label: in n-pentanol, 278.15 K
Measured Quantity: solubility (mole fraction)

q: # solubility (mole fraction) lookup, item CN1CCN(C2=Nc3cc(Cl)ccc3Nc3ccccc32)CC1
a: 0.00905

---

# Condition Label: in n-pentanol, 308.15 K
Measured Quantity: solubility (mole fraction)
Give bare numbers.

q: # solubility (mole fraction) lookup, item CN1CCN(C2=Nc3cc(Cl)ccc3Nc3ccccc32)CC1
a: 0.0174

---

# Condition Label: in 2-butanone, 283.15 K
Measured Quantity: solubility (mole fraction)

q: # solubility (mole fraction) lookup, item CN1CCN(C2=Nc3cc(Cl)ccc3Nc3ccccc32)CC1
a: 0.0242

---

# Condition Label: in n-butanol, 278.15 K
Measured Quantity: solubility (mole fraction)

q: # solubility (mole fraction) lookup, item CN1CCN(C2=Nc3cc(Cl)ccc3Nc3ccccc32)CC1
a: 0.00796

---

# Condition Label: in n-pentanol, 303.15 K
Measured Quantity: solubility (mole fraction)
Give bare numbers.

q: # solubility (mole fraction) lookup, item CN1CCN(C2=Nc3cc(Cl)ccc3Nc3ccccc32)CC1
a: 0.0159

---

# Condition Label: in isopropanol, 283.15 K
Measured Quantity: solubility (mole fraction)
One number for each entry.

q: # solubility (mole fraction) lookup, item CN1CCN(C2=Nc3cc(Cl)ccc3Nc3ccccc32)CC1
a: 0.00322

---

# Condition Label: in acetonitrile, 308.15 K
Measured Quantity: solubility (mole fraction)
Numbers only.

q: # solubility (mole fraction) lookup, item CN1CCN(C2=Nc3cc(Cl)ccc3Nc3ccccc32)CC1
a: 0.0038

---

# Condition Label: in acetonitrile, 278.15 K
Measured Quantity: solubility (mole fraction)
One number for each entry.

q: # solubility (mole fraction) lookup, item CN1CCN(C2=Nc3cc(Cl)ccc3Nc3ccccc32)CC1
a: 0.00213

---

# Condition Label: in n-propanol, 308.15 K
Measured Quantity: solubility (mole fraction)
Numbers only.

q: # solubility (mole fraction) lookup, item CN1CCN(C2=Nc3cc(Cl)ccc3Nc3ccccc32)CC1
a: 0.0148

---

# Condition Label: in chloroform, 313.15 K
Measured Quantity: solubility (mole fraction)
Numbers only.

q: # solubility (mole fraction) lookup, item CN1CCN(C2=Nc3cc(Cl)ccc3Nc3ccccc32)CC1
a: 0.0837

---

# Condition Label: in ethyl formate, 323.15 K
Measured Quantity: solubility (mole fraction)
Give bare numbers.

q: # solubility (mole fraction) lookup, item CN1CCN(C2=Nc3cc(Cl)ccc3Nc3ccccc32)CC1
a: 0.0564

---

# Condition Label: in n-propanol, 298.15 K
Measured Quantity: solubility (mole fraction)
Give bare numbers.

q: # solubility (mole fraction) lookup, item CN1CCN(C2=Nc3cc(Cl)ccc3Nc3ccccc32)CC1
a: 0.0118

---

# Condition Label: in THF, 318.15 K
Measured Quantity: solubility (mole fraction)
Answers are plain numbers.

q: # solubility (mole fraction) lookup, item CN1CCN(C2=Nc3cc(Cl)ccc3Nc3ccccc32)CC1
a: 0.103

---

# Condition Label: in THF, 288.15 K
Measured Quantity: solubility (mole fraction)
One number for each entry.

q: # solubility (mole fraction) lookup, item CN1CCN(C2=Nc3cc(Cl)ccc3Nc3ccccc32)CC1
a: 0.0716

---

# Condition Label: in isobutanol, 323.15 K
Measured Quantity: solubility (mole fraction)
Numbers only.

q: # solubility (mole fraction) lookup, item CN1CCN(C2=Nc3cc(Cl)ccc3Nc3ccccc32)CC1
a: 0.0155

---

# Condition Label: in n-propanol, 288.15 K
Measured Quantity: solubility (mole fraction)
Give bare numbers.

q: # solubility (mole fraction) lookup, item CN1CCN(C2=Nc3cc(Cl)ccc3Nc3ccccc32)CC1
a: 0.00924

---

# Condition Label: in isobutanol, 298.15 K
Measured Quantity: solubility (mole fraction)
One number for each entry.

q: # solubility (mole fraction) lookup, item CN1CCN(C2=Nc3cc(Cl)ccc3Nc3ccccc32)CC1
a: 0.00987

---

# Condition Label: in THF, 323.15 K
Measured Quantity: solubility (mole fraction)
Answers are plain numbers.

q: # solubility (mole fraction) lookup, item CN1CCN(C2=Nc3cc(Cl)ccc3Nc3ccccc32)CC1
a: 0.109

---

# Condition Label: in ethyl acetate, 303.15 K
Measured Quantity: solubility (mole fraction)
Numbers only.

q: # solubility (mole fraction) lookup, item CN1CCN(C2=Nc3cc(Cl)ccc3Nc3ccccc32)CC1
a: 0.0191

---

# Condition Label: in THF, 308.15 K
Measured Quantity: solubility (mole fraction)
Answers are plain numbers.

q: # solubility (mole fraction) lookup, item CN1CCN(C2=Nc3cc(Cl)ccc3Nc3ccccc32)CC1
a: 0.0919

---

# Condition Label: in isobutanol, 303.15 K
Measured Quantity: solubility (mole fraction)
Answers are plain numbers.

q: # solubility (mole fraction) lookup, item CN1CCN(C2=Nc3cc(Cl)ccc3Nc3ccccc32)CC1
a: 0.0108

---

# Condition Label: in ethanol, 318.15 K
Measured Quantity: solubility (mole fraction)

q: # solubility (mole fraction) lookup, item CN1CCN(C2=Nc3cc(Cl)ccc3Nc3ccccc32)CC1
a: 0.0119

---

# Condition Label: in isopropanol, 318.15 K
Measured Quantity: solubility (mole fraction)
Numbers only.

q: # solubility (mole fraction) lookup, item CN1CCN(C2=Nc3cc(Cl)ccc3Nc3ccccc32)CC1
a: 0.00781

---

# Condition Label: in chloroform, 318.15 K
Measured Quantity: solubility (mole fraction)
Answers are plain numbers.

q: # solubility (mole fraction) lookup, item CN1CCN(C2=Nc3cc(Cl)ccc3Nc3ccccc32)CC1
a: 0.0871

---

# Condition Label: in isopropanol, 308.15 K
Measured Quantity: solubility (mole fraction)
Give bare numbers.

q: # solubility (mole fraction) lookup, item CN1CCN(C2=Nc3cc(Cl)ccc3Nc3ccccc32)CC1
a: 0.00615

---

# Condition Label: in DMF, 293.15 K
Measured Quantity: solubility (mole fraction)

q: # solubility (mole fraction) lookup, item CN1CCN(C2=Nc3cc(Cl)ccc3Nc3ccccc32)CC1
a: 0.112

---

# Condition Label: in 2-butanone, 313.15 K
Measured Quantity: solubility (mole fraction)
Give bare numbers.

q: # solubility (mole fraction) lookup, item CN1CCN(C2=Nc3cc(Cl)ccc3Nc3ccccc32)CC1
a: 0.0458

---

# Condition Label: in acetone, 323.15 K
Measured Quantity: solubility (mole fraction)
Numbers only.

q: # solubility (mole fraction) lookup, item CN1CCN(C2=Nc3cc(Cl)ccc3Nc3ccccc32)CC1
a: 0.0363

---

# Condition Label: in isobutanol, 283.15 K
Measured Quantity: solubility (mole fraction)
Numbers only.

q: # solubility (mole fraction) lookup, item CN1CCN(C2=Nc3cc(Cl)ccc3Nc3ccccc32)CC1
a: 0.00731

---

# Condition Label: in isobutanol, 308.15 K
Measured Quantity: solubility (mole fraction)

q: # solubility (mole fraction) lookup, item CN1CCN(C2=Nc3cc(Cl)ccc3Nc3ccccc32)CC1
a: 0.0119

---

# Condition Label: in methanol, 308.15 K
Measured Quantity: solubility (mole fraction)
One number for each entry.

q: # solubility (mole fraction) lookup, item CN1CCN(C2=Nc3cc(Cl)ccc3Nc3ccccc32)CC1
a: 0.0109

---

# Condition Label: in isopentanol, 313.15 K
Measured Quantity: solubility (mole fraction)

q: # solubility (mole fraction) lookup, item CN1CCN(C2=Nc3cc(Cl)ccc3Nc3ccccc32)CC1
a: 0.0173
